B1: glmS ribozyme (parent)
chain: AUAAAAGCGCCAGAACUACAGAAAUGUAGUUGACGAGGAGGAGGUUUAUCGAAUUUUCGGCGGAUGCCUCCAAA

- Variants of: B1
- protocolDescription: self-cleavage kobs at 2500 uM GlcN6P; higher = faster cleavage; RNA array
- testParameters: with glucosamine-6-phosphate
This sample holds only a part of the variants without activity.

recordSequence: AUAAAAGCCUCAGAACUACAGAAAUGUAGUUGACGAGGAGGAGGUUUAUCGAAUAUUCGGCGGAUGCCUCCAAA
self-cleavage kobs at 2500 uM GlcN6P: < 1e-05 s⁻¹
//
recordSequence: AUAAAAGCGCGAGAACUACAGAAAUGUAGUUGACGAGGAGUAGGUUUCUCGAAUUUUCGGCGGAUGCCUGCAAA
self-cleavage kobs at 2500 uM GlcN6P: < 1e-05 s⁻¹
//
recordSequence: AUAAAAGCGCCAGAACUACAGAAAUGUAGUUGACGAGGAGGAGGUUGAUCGAAUUUUCGGCGGAUGCCUCAAAA
self-cleavage kobs at 2500 uM GlcN6P: 0.000556 s⁻¹
